Below, each of the molecules is paired with its reported Nurr1 activity 10μM (mean fold activation) value.
- tgt: Nurr1 (Homo sapiens, UniProt P43354)
- Construct: Nurr1 (uniprot entry: hNURR1–P43354, residues 360–598); expressed in transfected cells; host or cells: HEK293T
- Sequence (P43354 360-598): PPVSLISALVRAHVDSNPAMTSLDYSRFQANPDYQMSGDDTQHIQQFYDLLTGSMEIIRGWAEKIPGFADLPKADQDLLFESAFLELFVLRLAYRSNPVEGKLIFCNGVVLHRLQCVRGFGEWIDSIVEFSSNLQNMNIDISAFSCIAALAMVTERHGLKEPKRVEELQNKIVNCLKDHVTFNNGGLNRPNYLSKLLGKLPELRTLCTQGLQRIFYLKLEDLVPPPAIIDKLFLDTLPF
- experimental protocol: Gal4-Nurr1 hybrid reporter gene assay in HEK293T cells
- Type: cell-based
- details: 10 µM; primary screen; n ≥ 2; ^# not significant vs VP16 control
attribute measured: Nurr1 activity 10μM (mean fold activation) (fold)

{"columns": ["molecule", "tgt", "unit text", "recorded measurement"],
 "data": [
  ["CC(C(=O)O)c1cccc(C(=O)c2ccccc2)c1 (centres unmarked) [ketoprofen]", "Nurr1 (Homo sapiens, UniProt P43354)", "fold", 1.00],
  ["COc1ccc2c(c1)c(CC(=O)O)c(C)n2C(=O)c1ccc(Cl)cc1 [indometacin]", "Nurr1 (Homo sapiens, UniProt P43354)", "fold", 0.96],
  ["Nc1c(CC(=O)O)cccc1C(=O)c1ccc(Br)cc1 [bromfenac]", "Nurr1 (Homo sapiens, UniProt P43354)", "fold", 1.09],
  ["O=C(O)c1ccccc1Nc1cccc(C(F)(F)F)c1 [flufenamic acid]", "Nurr1 (Homo sapiens, UniProt P43354)", "fold", 1.14],
  ["CC(=O)Oc1ccccc1C(=O)O [acetylsalicylic acid]", "Nurr1 (Homo sapiens, UniProt P43354)", "fold", 1.02],
  ["CN1C(C(=O)Nc2ccccn2)=C(O)c2ccccc2S1(=O)=O [piroxicam]", "Nurr1 (Homo sapiens, UniProt P43354)", "fold", 0.98],
  ["O=C(OCCOCCO)c1ccccc1Nc1cccc(C(F)(F)F)c1 [etofenamate]", "Nurr1 (Homo sapiens, UniProt P43354)", "fold", 0.97],
  ["Cc1cc(NC(=O)C2=C(O)c3ccccc3S(=O)(=O)N2C)no1 [isoxicam]", "Nurr1 (Homo sapiens, UniProt P43354)", "fold", 0.98],
  ["CCc1cccc2c3c([nH]c12)C(CC)(CC(=O)O)OCC3 (centres unmarked) [etodolac]", "Nurr1 (Homo sapiens, UniProt P43354)", "fold", 1.06],
  ["Cc1ccc(-c2cc(C(F)(F)F)nn2-c2ccc(S(N)(=O)=O)cc2)cc1 [celecoxib]", "Nurr1 (Homo sapiens, UniProt P43354)", "fold", 0.93],
  ["CCCCC1C(=O)N(c2ccccc2)N(c2ccccc2)C1=O [phenylbutazone]", "Nurr1 (Homo sapiens, UniProt P43354)", "fold", 0.94],
  ["O=C(O)Cc1ccccc1Nc1c(Cl)cccc1Cl [diclofenac]", "Nurr1 (Homo sapiens, UniProt P43354)", "fold", 1.19],
  ["Cc1cccc(Nc2ccccc2C(=O)O)c1C [mefenamic acid]", "Nurr1 (Homo sapiens, UniProt P43354)", "fold", 0.90],
  ["CC(C(=O)O)c1ccc2c(c1)[nH]c1ccc(Cl)cc12 (centres unmarked) [carprofen]", "Nurr1 (Homo sapiens, UniProt P43354)", "fold", 1.10],
  ["CN1C(C(=O)Nc2ccccn2)=C(O)c2sc(Cl)cc2S1(=O)=O [lornoxicam]", "Nurr1 (Homo sapiens, UniProt P43354)", "fold", 0.93],
  ["Cc1c(Cl)cccc1Nc1ccccc1C(=O)O [tolfenamic acid]", "Nurr1 (Homo sapiens, UniProt P43354)", "fold", 1.18],
  ["Cc1ccc(Cl)c(Nc2ccccc2C(=O)O)c1Cl [MFA, Meclofenamic acid]", "Nurr1 (Homo sapiens, UniProt P43354)", "fold", 3.60],
  ["O=C(O)COC(=O)Cc1ccccc1Nc1c(Cl)cccc1Cl [aceclofenac]", "Nurr1 (Homo sapiens, UniProt P43354)", "fold", 0.85],
  ["CC(C)Cc1ccc(C(C)C(=O)O)cc1 (centres unmarked) [ibuprofen]", "Nurr1 (Homo sapiens, UniProt P43354)", "fold", 1.02],
  ["COc1ccc(-c2noc(CC(=O)O)c2-c2ccc(OC)cc2)cc1 [mofezolac]", "Nurr1 (Homo sapiens, UniProt P43354)", "fold", 0.94]
]}
